# testDetails: Drug uptake in human COLO205 tumor xenografted in mouse at 100 mg/kg administered QD for 2 days measured 8 hrs post-last dose
# Format: ADME, organism-based, Neoplasm
# Set-up: dose 100 mg/kg
# experimentalConditions: human COLO205 tumor xenograft, read-out: Drug uptake
reportedEndpoint: concentration at 8 h (µM)
// units = µM; emit number, no label

# query: concentration at 8 h of entry COc1cccc(C(=O)NC2CC3CCC(C2)N3c2ccc(C(N)=O)cn2)c1C (stereo unspecified)
6.7

----------
# testDetails: Drug uptake in human NCI-N87 tumor xenografted in mouse at 100 mg/kg administered QD for 3 days measured at 8 hrs post-last dose
# Assay type: ADME, organism-based, Neoplasm
# Parameters: dose 100 mg/kg
# experimentalConditions: human NCI-N87 tumor xenograft, read-out: Drug uptake
reportedEndpoint: concentration at 8 h (µM)
Dear colleague, please return just the value in µM, with no unit written.

Query (compound): CC[C@@H](C)Nc1cc(C(=O)NC2CC3CCC(C2)N3c2ccc(C(=O)C3CC3)cn2)c(C)cc1C(N)=O (stereo partly specified) ; field requested: concentration at 8 h
5.39

----------
# testDetails: Apparent permeability across MDCK cells
# Format: ADME, cell-based, Canis lupus familiaris
# experimentalConditions: dog
Response field label takes Y when Papp is strictly below 30 ×10⁻⁶ cm/s and N in all other cases.

Threshold test, Papp < 30 ×10⁻⁶ cm/s: C[C@H](NC(=O)c1ccc(N2C3CCC2CC(NC(=O)c2ccc(C(N)=O)c(Nc4ccccc4)c2)C3)nc1)c1ccc(N2CCN(C)CC2)cc1 (stereo partly drawn)
Y

# iterate: Cc1cc(C(N)=O)c(NC2CCCC2)cc1C(=O)NC1CC2CCC(C1)N2c1ccc(C(=O)C2CC2)cn1 (stereo not drawn)
Y

Now the molecule CC[C@@H](C)Nc1cc(C(=O)NC2CC3CCC(C2)N3c2ccc(C(=O)C3CC3)cn2)c(C)cc1C(N)=O (stereo partly drawn)
N

And NC(=O)c1ccc(C(=O)NC2CC3CCC(C2)N3c2ccc(C(=O)C3CC3)cn2)cc1NCC1CC1 (stereo not drawn) ?
N

Entry COc1cccc(C(=O)NC2CC3CCC(C2)N3c2ccc(C(N)=O)cn2)c1C (stereo not drawn) please
Y

Can you handle CC(=O)c1ccc(N2C3CCC2CC(NC(=O)c2ccc(C(N)=O)c(NCC4CC4)c2)C3)nc1 (stereo not drawn) next?
N

Same question for CCNC(=O)c1ccc(N2C3CCC2CC(NC(=O)c2ccc(C(N)=O)c(NCC4CC4)c2)C3)nc1 (stereo not drawn) please.
N

Query CCC(CC)Nc1cc(C(=O)NC2CC3CCC(C2)N3c2ccc(C(=O)C3CC3)cn2)c(C)cc1C(N)=O (stereo not drawn) next
Y

----------
Recorded Papp for the following compounds
# testDetails: Apparent permeability across MDCK cells
# Assay type: ADME, cell-based, Canis lupus familiaris
# experimentalConditions: dog
Value expressed in ×10⁻⁶ cm/s; do not type the unit.

| compound | Papp / ×10⁻⁶ cm/s |
| --- | --- |
| CCC(CC)Nc1cc(C(=O)NC2CC3CCC(C2)N3c2ccc(C(C)=O)cn2)ccc1C(N)=O (stereo not drawn) | 67.6 |
| COc1cccc(C(=O)NC2CC3CCC(C2)N3c2ccc(C(=O)NCc3ccccc3)cn2)c1C (stereo not drawn) | 50.5 |
| CCCNc1cc(C(=O)NC2CC3CCC(C2)N3c2ccc(C(=O)C3CC3)cn2)c(C)cc1C(N)=O (stereo not drawn) | 23.4 |
| Cc1cc(C(N)=O)ccc1C(=O)NC1CC2CCC(C1)N2c1ccc(C(=O)NCc2ccccc2)cn1 (stereo not drawn) | 0.21 |
| C[C@H](NC(=O)c1ccc(N2C3CCC2CC(NC(=O)c2ccc(C(N)=O)c(NC4CCC4)c2)C3)nc1)c1ccc(N2CCN(C)CC2)cc1 (stereo partly drawn) | 0.46 |
| O=C(NCc1ccccc1)c1ccc(N2C3CCC2CC(NC(=O)c2ccc(CO)cc2)C3)nc1 (stereo not drawn) | 2.5 |

Okay, now this compound:
Bench note: what Papp did CC[C@H](C)Nc1cc(C(=O)NC2CC3CCC(C2)N3c2ccc(C(=O)C3CC3)cn2)c(C)cc1C(N)=O (stereo partly drawn) show?
24

----------
# Test system: Rattus norvegicus
# testDetails: Dose normalized AUC in rat at 2.5 mg/kg, iv
# Type: ADME, organism-based
# Parameters: dose 2.5 mg/kg, route intravenous
# experimentalConditions: in vivo
reportedEndpoint: AUC/dose (µM·kg·h/mg)
Give the value in µM·kg·h/mg but do not write µM·kg·h/mg after it.

Some solved cases for reference:
| compound | AUC/dose / µM·kg·h/mg |
| --- | --- |
| Cc1cc(C(N)=O)c(NC(C)C)cc1C(=O)NC1CC2CCC(C1)N2c1ccc(C(=O)C2CC2)cn1 (centres undefined) | 0.57 |
| NC(=O)c1ccc(C(=O)NC2CC3CCC(C2)N3c2ccc(C(=O)C3CC3)cn2)cc1NCC1CC1 (centres undefined) | 3.7 |
| NC(=O)c1ccc(C(=O)NC2CC3CCC(C2)N3c2ccc(C(=O)NC3CCCC3)cn2)cc1NCC1CC1 (centres undefined) | 0.49 |
| COc1cccc(C(=O)NC2CC3CCC(C2)N3c2ccc(C(=O)NCc3ccccc3)cn2)c1C (centres undefined) | 0.9 |

Next item in the queue.
# AUC/dose lookup, item Cc1cc(C(N)=O)c(NC2CCCC2)cc1C(=O)NC1CC2CCC(C1)N2c1ccc(C(=O)C2CC2)cn1 (centres undefined)
2.26

----------
# System: Rattus norvegicus
# testDetails: Dose normalized AUC in rat at 5 mg/kg, iv
# Type: ADME, organism-based
# Design: dose 5 mg/kg, route intravenous
# experimentalConditions: in vivo
Recorded log10 AUC/dose by entry
Form field - Quantity: AUC/dose; Unit: µM·kg·h/mg; Scale: log10

Requested read-out: log10 AUC/dose. Entry: CC[C@@H](C)Nc1cc(C(=O)NC2CC3CCC(C2)N3c2ccc(C(=O)C3CC3)cn2)c(C)cc1C(N)=O (stereo not given in full)
0.35

----------
# Tested on: NCI-H1975
# testDetails: Antiproliferative activity against human NCI-H1975 cells overexpressing EGFR after 48 hrs by BrdU labeling assay
# Format: functional, cell-based
# experimentalConditions: NCI-H1975, 48 h
reportedEndpoint: IC50 (nM)
Please respond with the number in nM and leave the unit unwritten.

# get_value(readout='IC50', item= CC[C@@H](C)Nc1cc(C(=O)NC2CC3CCC(C2)N3c2ccc(C(=O)C3CC3)cn2)c(C)cc1C(N)=O (stereo partly specified) )
0.7

----------
Each item that follows carries a reported clearance.
# testDetails: Clearance in rat at 2.5 mg/kg, iv
# Format: ADME, organism-based
# Parameters: dose 2.5 mg/kg, route intravenous
# experimentalConditions: in vivo
The reply should contain only the number, in mL/min/kg.

Illustrative cases are given below, each with its answer.
| compound | unitInfo | clearance |
| --- | --- | --- |
| NC(=O)c1ccc(C(=O)NC2CC3CCC(C2)N3c2ccc(C(=O)NC3CCCC3)cn2)cc1NCC1CC1 (centres undefined) | mL/min/kg | 63.5 |
| Cc1cc(C(N)=O)c(NC(C)C)cc1C(=O)NC1CC2CCC(C1)N2c1ccc(C(=O)C2CC2)cn1 (centres undefined) | mL/min/kg | 63.2 |
| COc1cccc(C(=O)NC2CC3CCC(C2)N3c2ccc(C(=O)NCc3ccccc3)cn2)c1C (centres undefined) | mL/min/kg | 38.1 |
| Cc1cc(C(N)=O)c(NC2CCCC2)cc1C(=O)NC1CC2CCC(C1)N2c1ccc(C(=O)C2CC2)cn1 (centres undefined) | mL/min/kg | 14.5 |
| CCC(CC)Nc1cc(C(=O)NC2CC3CCC(C2)N3c2ccc(C(=O)C3CC3)cn2)c(C)cc1C(N)=O (centres undefined) | mL/min/kg | 30.8 |
| NC(=O)c1ccc(C(=O)NC2CC3CCC(C2)N3c2ccc(C(=O)C3CC3)cn2)cc1NCC1CC1 (centres undefined) | mL/min/kg | 8.43 |

Could you tell me which clearance is on file for CC(=O)c1ccc(N2C3CCC2CC(NC(=O)c2ccc(C(N)=O)c(NCC4CC4)c2)C3)nc1 (centres undefined) ?
71.5

Another compound: Cc1cc(C(N)=O)c(NCC2CC2)cc1C(=O)NC1CC2CCC(C1)N2c1ccc(C(=O)C2CC2)cn1 (centres undefined)
19.7

Now the compound CC[C@H](C)Nc1cc(C(=O)NC2CC3CCC(C2)N3c2ccc(C(=O)C3CC3)cn2)c(C)cc1C(N)=O (some centres undefined)
38.5

----------
# testDetails: Clearance in rat at 5 mg/kg, iv
# Format: ADME, organism-based
# Set-up: dose 5 mg/kg, route intravenous
# experimentalConditions: in vivo
Note to self: values exactly at 40 mL/min/kg are yes. So clearance at or above 40 mL/min/kg is yes, below is no.

| compound | category |
| --- | --- |
| CCC(CC)Nc1cc(C(=O)NC2CC3CCC(C2)N3c2ccc(C(C)=O)cn2)c(C)cc1C(N)=O (stereo not given) | yes |
| CCC(CC)Nc1cc(C(=O)NC2CC3CCC(C2)N3c2ccc(C(C)=O)cn2)ccc1C(N)=O (stereo not given) | no |
| CC[C@@H](C)Nc1cc(C(=O)NC2CC3CCC(C2)N3c2ccc(C(=O)C3CC3)cn2)c(C)cc1C(N)=O (stereo not given in full) | no |

Test whether the compound COc1cccc(C(=O)NC2CC3CCC(C2)N3c2ccc(C(N)=O)cn2)c1C (stereo not given) records clearance of 40 mL/min/kg or higher.
no
